Biological target: Peregrin (Homo sapiens)
Sequence (whole entry): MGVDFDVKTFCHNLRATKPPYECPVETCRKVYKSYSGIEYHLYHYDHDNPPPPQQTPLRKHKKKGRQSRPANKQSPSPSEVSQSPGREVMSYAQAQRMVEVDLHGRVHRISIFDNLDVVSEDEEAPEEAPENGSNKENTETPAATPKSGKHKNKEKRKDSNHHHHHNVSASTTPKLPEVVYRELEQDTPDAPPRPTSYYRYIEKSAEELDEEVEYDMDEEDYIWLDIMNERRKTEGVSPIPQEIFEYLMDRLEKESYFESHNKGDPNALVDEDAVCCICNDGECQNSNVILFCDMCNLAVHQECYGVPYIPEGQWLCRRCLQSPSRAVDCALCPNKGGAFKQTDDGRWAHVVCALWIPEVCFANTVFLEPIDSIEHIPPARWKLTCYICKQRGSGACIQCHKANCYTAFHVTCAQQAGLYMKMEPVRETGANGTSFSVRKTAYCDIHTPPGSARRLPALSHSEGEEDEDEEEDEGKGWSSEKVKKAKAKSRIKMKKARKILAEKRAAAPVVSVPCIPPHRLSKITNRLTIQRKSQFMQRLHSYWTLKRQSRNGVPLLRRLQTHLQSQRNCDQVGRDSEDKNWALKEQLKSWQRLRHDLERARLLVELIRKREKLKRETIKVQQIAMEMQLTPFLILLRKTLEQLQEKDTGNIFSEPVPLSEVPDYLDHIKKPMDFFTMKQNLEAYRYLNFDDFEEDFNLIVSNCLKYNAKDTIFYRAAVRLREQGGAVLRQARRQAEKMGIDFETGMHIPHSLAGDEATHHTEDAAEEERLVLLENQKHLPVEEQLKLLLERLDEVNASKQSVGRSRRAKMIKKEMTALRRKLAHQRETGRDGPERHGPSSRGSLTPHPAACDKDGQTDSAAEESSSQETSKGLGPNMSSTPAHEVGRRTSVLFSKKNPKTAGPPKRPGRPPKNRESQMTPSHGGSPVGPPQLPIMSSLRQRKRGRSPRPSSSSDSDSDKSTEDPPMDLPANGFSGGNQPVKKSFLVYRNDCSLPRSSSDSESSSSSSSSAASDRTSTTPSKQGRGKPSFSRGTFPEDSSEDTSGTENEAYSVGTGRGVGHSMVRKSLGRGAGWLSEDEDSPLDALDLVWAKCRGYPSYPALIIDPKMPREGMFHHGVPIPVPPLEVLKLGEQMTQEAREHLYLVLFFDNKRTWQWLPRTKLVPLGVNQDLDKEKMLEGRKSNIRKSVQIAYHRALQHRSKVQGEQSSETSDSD
Conditions: Compound concentration 20.0 uM, Protein concentration 2.0 uM, Result type QC Liability
metricName: ΔTm (°C)
# value in °C; strip the unit string

CCc1nc(-c2cccc(C)c2)c(-c2ccnc(NC(=O)c3ccccc3)c2)s1 | -2.72
N[C@@H](CC(=O)O)Cn1nnc(-c2ccc(Oc3ncc(Cl)cc3F)cc2)n1 | -3.09
NCc1ccc(OCCCc2sc(-c3ccc4c(c3)/C(=N/Nc3nc5ccccc5s3)CCC4)nc2C(=O)O)cc1 | -3.06
O=C1Nc2nc(-c3c(O)cccc3OCC3CC3)cc([C@@H]3CCCNC3)c2CO1 | -2.51
COc1ccccc1S(=O)(=O)Nc1ccc2c(c1)CN(C)C(=O)N2 | 1.73

ΔTm lookup needed for CCc1cnn2c(NCc3ccc[n+]([O-])c3)cc(N3CCCCC3CCO)nc12 (centres undefined) , thanks.
-1.7

ΔTm lookup needed for CNc1ncc2cc(-c3ccc(-c4ncccc4F)cc3Cl)c(=O)n(C[C@H]3OC[C@H](N)CO3)c2n1 , thanks.
-1.11

ΔTm lookup needed for Cn1c(Nc2c(Cl)cccc2Cl)nc2ccc3nc[nH]c(=O)c3c21 , thanks.
-0.59

ΔTm lookup needed for Cc1nc2c(cc1F)c(-c1nnc3c(n1)NC(=O)C3(C)C)nn2Cc1cccc(F)c1F , thanks.
-2.09
